target: Avi-KRAS G12R (1-169) GppNHp/RAF1 RBD-3xFLAG (52-151) (Homo sapiens, UniProt P01116, G12R); construct: Avi-KRAS G12R (1-169); assay: Raf1-KRAS G12R-GppNHP disruption HTRF assay (Biological Example 1); type: binding; conditions: KRAS G12R-GppNHp/RAF1 RBD HTRF
Sequence (P01116 1-169 isoform P01116-2 G12R): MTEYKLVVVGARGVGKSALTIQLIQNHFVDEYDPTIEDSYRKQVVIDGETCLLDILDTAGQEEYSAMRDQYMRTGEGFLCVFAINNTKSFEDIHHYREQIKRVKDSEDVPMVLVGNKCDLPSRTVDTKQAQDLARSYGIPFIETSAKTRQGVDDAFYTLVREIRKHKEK
pIC50: −log10 of the molar value.
readout: pIC50

[
  {
    "molecule": "N#Cc1c(N)sc2c(F)ccc(-c3c(C(F)(F)F)cc4c(N5C[C@@H]6C[C@H]5CS6(=O)=O)nc(OC[C@@]56CCCN5C[C@H](F)C6)nc4c3F)c12 [Compound 319]",
    "readout": "pIC50",
    "endpoint_result": "5.00 to 6.00"
  },
  {
    "molecule": "N#Cc1c(N)sc2c(F)ccc(-c3c(C(F)(F)F)cc4c(N5C[C@H]6C[C@@H]5CO6)nc(OC[C@@]56CCCN5C[C@H](F)C6)nc4c3F)c12 (single isomer, unassigned) [Compound 288]",
    "readout": "pIC50",
    "endpoint_result": "< 5.00"
  },
  {
    "molecule": "CN(c1nc(OC[C@@]23CCCN2C[C@H](F)C3)nc2c(F)c(-c3ccc(F)c4sc(N)c(C#N)c34)c(C(F)(F)F)cc12)[C@H]1C[C@H](CF)N(C(=O)C2CC2)C1 [Compound 462]",
    "readout": "pIC50",
    "endpoint_result": "6.00 to 7.00"
  },
  {
    "molecule": "C[C@@H]1CC[C@@H](O)CN1c1nc(OC[C@@]23CCCN2C[C@H](F)C3)nc2c(F)c(-c3ccc(F)c4sc(N)c(C#N)c34)c(C(F)(F)F)cc12 [Compound 314]",
    "readout": "pIC50",
    "endpoint_result": "6.00 to 7.00"
  },
  {
    "molecule": "CCN(c1nc(OC[C@@]23CCCN2C[C@H](F)C3)nc2c(F)c(-c3ccc(F)c4sc(N)c(C#N)c34)c(C(F)(F)F)cc12)[C@@H]1C[C@@H](C)N(C(=O)N(C)C)C1 (atropisomer, axis not shown) [Compound 525]",
    "readout": "pIC50",
    "endpoint_result": "5.00 to 6.00"
  },
  {
    "molecule": "CC(=O)N1CC[C@@H](N(C)c2nc(OC[C@@]34CCCN3C[C@H](F)C4)nc3c(F)c(-c4ccc(F)c5oc(N)c(C#N)c45)c(C(F)(F)F)cc23)[C@H]1C [Compound 326]",
    "readout": "pIC50",
    "endpoint_result": "6.00 to 7.00"
  },
  {
    "molecule": "CN(c1nc(OC[C@@]23CCCN2C[C@H](F)C3)nc2c(F)c(-c3ccc(F)c4sc(N)c(C#N)c34)c(C(F)(F)F)cc12)[C@@H]1C[C@@H]2COC(=O)N2C1 [Compound 450]",
    "readout": "pIC50",
    "endpoint_result": "6.00 to 7.00"
  },
  {
    "molecule": "CN(C)C(=O)c1nnn2c1CN(c1nc(OC[C@@]34CCCN3C[C@H](F)C4)nc3c(F)c(-c4ccc(F)c5sc(N)c(C#N)c45)c(C(F)(F)F)cc13)CC2 [Compound 466]",
    "readout": "pIC50",
    "endpoint_result": "6.00 to 7.00"
  },
  {
    "molecule": "CCN(c1nc(OC[C@@]23CCCN2C[C@H](F)C3)nc2c(F)c(-c3ccc(F)c4sc(N)c(C#N)c34)c(C(F)(F)F)cc12)[C@H]1CCN(C(=O)C2(C#N)CC2)C1 [Compound 560]",
    "readout": "pIC50",
    "endpoint_result": "> 7.00"
  }
]

Known value: Avi-KRAS G12R (1-169) GppNHp/RAF1 RBD-3xFLAG (52-151) (Homo sapiens, UniProt P01116, G12R) pIC50 of the molecule C[C@@H]1[C@H](N(C)c2nc(OC[C@@]34CCCN3C[C@H](F)C4)nc3c(F)c(-c4ccc(F)c5sc(N)c(C#N)c45)c(Cl)cc23)CCN1C(=O)C1CC1 [Compound 401] equals 6.00 to 7.00

Reference for the values: patent US20260042764A1
